system: methicillin-sensitive Staphylococcus aureus; assay: MIC by broth micro-dilution (CLSI), methicillin-sensitive S. aureus; assay type: cell-based; settings: Staphylococcus aureus, ATCC29213|MSSA, MSSA S. aureus ATCC29213; read-out: MIC
MIC by entry:
Quick reminder: number only, in µg/mL, skip the unit.

1. C[C@@H](NC(=O)Cn1cnnn1)[C@H]1C(=O)N2C(C(=O)O)=C(S[C@@H]3CN[C@H](C(=O)N4CCC5CNCC5C4)C3)[C@H](C)[C@H]12 (single isomer, unassigned) :: 4

State the recorded MIC for this entry: C[C@@H](NC(=O)Cn1cnnn1)[C@H]1C(=O)N2C(C(=O)O)=C(S[C@@H]3CN[C@H](C(=O)N4CCC5CNCC5(CO)C4)C3)[C@H](C)[C@H]12 (single isomer, unassigned)
2

Subsequent entry: C[C@@H](NC(=O)Cn1cnnn1)[C@H]1C(=O)N2C(C(=O)[O-])=C(S[C@@H]3CN[C@H](C(=O)N4CCC5C[N+](C)(C)CCC54)C3)[C@H](C)[C@H]12 (stereo partly shown)
8

Entry to check: `C[C@@H](NC(=O)Cn1cnnn1)[C@H]1C(=O)N2C(C(=O)O)=C(S[C@@H]3CN[C@H](C(=N)N4CC[C@@H](N)C4)C3)[C@H](C)[C@H]12`
1
